Data credit: patent EP0238178B1

- Tested on: Staphylococcus aureus S13E
- Test method notes: MIC, standard agar-dilution assay
- Format: cell-based
Kindly state MIC for each of the entries shown.
Field format: number, assumed µg/mL, no unit text.

In: Give its MIC value. Item: `CC[C@H]1OC(=O)[C@H](C)[C@@H](O[C@H]2C[C@@](C)(OC)[C@@H](O)[C@H](C)O2)[C@H](C)[C@@H](O[C@@H]2O[C@H](C)C[C@H](N(C)C)[C@H]2O)[C@](C)(O)C[C@@H](C)[C@H](NCC(C)(C)CO)[C@H](C)[C@@H](O)[C@]1(C)O`
Out: 1

In: Give its MIC value. Item: `CCCCCCCCCCCCN[C@@H]1[C@H](C)[C@@H](O)[C@](C)(O)[C@@H](CC)OC(=O)[C@H](C)[C@@H](O[C@H]2C[C@@](C)(OC)[C@@H](O)[C@H](C)O2)[C@H](C)[C@@H](O[C@@H]2O[C@H](C)C[C@H](N(C)C)[C@H]2O)[C@](C)(O)C[C@H]1C`
Out: 2

In: Give its MIC value. Item: `CCCCCN[C@@H]1[C@H](C)[C@@H](O)[C@](C)(O)[C@@H](CC)OC(=O)[C@H](C)[C@@H](O[C@H]2C[C@@](C)(OC)[C@@H](O)[C@H](C)O2)[C@H](C)[C@@H](O[C@@H]2O[C@H](C)C[C@H](N(C)C)[C@H]2O)[C@](C)(O)C[C@H]1C`
Out: 1
